System: hiPSCs differentiating into cardiomyocyte-like cells
Test: ReproTracker cardiomyocyte differentiation assay
attributeMeasured: ReproTracker results Cardiomyocyte-like cells

compound	studyTarget	reportedMeasurement
CC[C@H]1OC(=O)[C@H](C)[C@@H](O[C@H]2C[C@@](C)(OC)[C@@H](O)[C@H](C)O2)[C@H](C)[C@@H](O[C@@H]2O[C@H](C)C[C@H](N(C)C)[C@H]2O)[C@](C)(OC)C[C@@H](C)C(=O)[C@H](C)[C@@H](O)[C@]1(C)O [Clarithromycin]	hiPSCs differentiating into cardiomyocyte-like cells	Negative
CO [Methanol]	hiPSCs differentiating into cardiomyocyte-like cells	Negative
CC1(C)O[C@@H]2[C@@H](CO[C@@]3(COS(N)(=O)=O)OC(C)(C)O[C@@H]23)O1 [Topiramate]	hiPSCs differentiating into cardiomyocyte-like cells	Negative
N#C[C@@H]1CCCN1C(=O)CNC12CC3CC(CC(O)(C3)C1)C2 [Vildagliptin]	hiPSCs differentiating into cardiomyocyte-like cells	Negative
N#C[C@@H]1C[C@@H]2C[C@@H]2N1C(=O)[C@@H](N)C12CC3CC(CC(O)(C3)C1)C2 [Saxagliptin]	hiPSCs differentiating into cardiomyocyte-like cells	Negative
Cc1ccc(NC(=O)c2ccc(CN3CCN(C)CC3)cc2)cc1Nc1nccc(-c2cccnc2)n1 [Imatinib]	hiPSCs differentiating into cardiomyocyte-like cells	Negative
CS(=O)(=O)OCCCCOS(C)(=O)=O [Busulfan]	hiPSCs differentiating into cardiomyocyte-like cells	Negative
CC1=C(/C=C/C(C)=C/C=C/C(C)=C\C(=O)O)C(C)(C)CCC1 [Isotretinoin]	hiPSCs differentiating into cardiomyocyte-like cells	Positive
Cc1nc(Nc2ncc(C(=O)Nc3c(C)cccc3Cl)s2)cc(N2CCN(CCO)CC2)n1 [Dasatinib]	hiPSCs differentiating into cardiomyocyte-like cells	Positive
CC(=O)Oc1ccccc1C(=O)O [Aspirin]	hiPSCs differentiating into cardiomyocyte-like cells	Negative
C=CC(=O)N1CCC[C@@H](n2nc(-c3ccc(Oc4ccccc4)cc3)c3c(N)ncnc32)C1 [Ibrutinib]	hiPSCs differentiating into cardiomyocyte-like cells	Negative
Nc1ccn([C@@H]2O[C@H](CO)[C@@H](O)[C@@H]2O)c(=O)n1 [Cytarabine]	hiPSCs differentiating into cardiomyocyte-like cells	Positive
CC1=C(/C=C/C(C)=C/C=C/C(C)=C/C(=O)O)C(C)(C)CCC1 [Tretinoin (Retinoic acid)]	hiPSCs differentiating into cardiomyocyte-like cells	Positive
CN1C(=O)OC(C)(C)C1=O [Trimethadione]	hiPSCs differentiating into cardiomyocyte-like cells	Negative
CN(Cc1cnc2nc(N)nc(N)c2n1)c1ccc(C(=O)N[C@@H](CCC(=O)O)C(=O)O)cc1 [Methotrexate]	hiPSCs differentiating into cardiomyocyte-like cells	Negative

* * *

The following compounds each carry a recorded PAX6 gene expression at D7 for hiPSCs differentiating into neural rosette-like cells.

compound	studyTarget	PAX6 gene expression at D7
C=CC[C@@H]1/C=C(\C)C[C@H](C)C[C@H](OC)[C@H]2O[C@@](O)(C(=O)C(=O)N3CCCC[C@H]3C(=O)O[C@H](/C(C)=C/[C@@H]3CC[C@@H](O)[C@H](OC)C3)[C@H](C)[C@@H](O)CC1=O)[C@H](C)C[C@@H]2OC	hiPSCs differentiating into neural rosette-like cells	downregulation
CC1=C(/C=C/C(C)=C/C=C/C(C)=C/C(=O)O)C(C)(C)CCC1 [Tretinoin (Retinoic acid)]	hiPSCs differentiating into neural rosette-like cells	downregulation
